Form: system (UniProt:Q72547), quantity (log10(IC50)), values below.
Friendly reminder: values = log10 of IC50, unit µM.

| Compound | log10(IC50) |
| --- | --- |
| Nc1ncnc2c1ncn2C1C=CC(OCP(=O)(O)OP(=O)(O)C(F)(F)P(=O)(O)OP(=O)(O)COC2C=CC(n3cnc4c(N)ncnc43)C2)C1 (centres undefined) | 1.30 |
| Nc1nc2c(ncn2C2C=CC(OCP(=O)(O)OP(=O)(O)OP(=O)(O)O)C2)c(=O)[nH]1 (centres undefined) | -0.52 |
| Nc1ncnc2c1ncn2C1C=CC(OCP(=O)(O)OP(=O)(O)OP(=O)(O)COC2C=CC(n3cnc4c(N)ncnc43)C2)C1 (centres undefined) | 1.00 |
| Nc1nc(O)c2ncn(C3C=CC(OCP(=O)(O)OP(=O)(O)C(F)(F)P(=O)(O)OP(=O)(O)COC4C=CC(n5cnc6c(O)nc(N)nc65)C4)C3)c2n1 (centres undefined) | 1.18 |
| Nc1nc2c(ncn2C2C=CC(OCP(=O)(O)OP(=O)(O)OP(=O)(O)OP(=O)(O)COC3C=CC(n4cnc5c(=O)[nH]c(N)nc54)C3)C2)c(=O)[nH]1 (centres undefined) | -0.15 |
| Nc1ncnc2c1ncn2C1C=CC(OCP(=O)(O)OP(=O)(O)C(F)(F)P(=O)(O)O)C1 (centres undefined) | 1.40 |
| Nc1ncnc2c1ncn2C1C=CC(OCP(=O)(O)OP(=O)(O)OP(=O)(O)O)C1 (centres undefined) | -0.70 |
| Nc1ncnc2c1ncn2C1C=CC(OCP(=O)(O)OP(=O)(O)OP(=O)(O)OP(=O)(O)COC2C=CC(n3cnc4c(N)ncnc43)C2)C1 (centres undefined) | 0.30 |
| Nc1nc2c(ncn2C2C=CC(OCP(=O)(O)OP(=O)(O)OP(=O)(O)COC3C=CC(n4cnc5c(=O)[nH]c(N)nc54)C3)C2)c(=O)[nH]1 (centres undefined) | 0.90 |

Here is the next item to consider.
Recorded log10(IC50) (compound Nc1nc2c(ncn2C2C=CC(OCP(=O)(O)OP(=O)(O)C(F)(F)P(=O)(O)O)C2)c(=O)[nH]1 (centres undefined) ): 1.40
